Below, each entry is listed alongside its reported cytotoxicity at 70.5 h.
assay: Human HepG2 cell viability assay in 384 well format; assay type: toxicity, cell-based; parameters: dose 125 nL, time 70.5 hour; concentration not given beside the values; conditions: HepG2 cells, read-out: Inhibition
Answer with a number only, understood to be in %.

Below, each entry is followed by its recorded cytotoxicity at 70.5 h result.
Input line: What value of measured cytotoxicity at 70.5 h is listed for "CC(=O)N1CCN(c2ncnc3cc4c(cc23)OCCO4)CC1" ?
Output line: -6.91

Input line: Param item = "CC(C)S(=O)(=O)N1CCN(C(=O)c2cnn(C)c2Cl)CC1" ; retrieve measured cytotoxicity at 70.5 h.
Output line: -12.2

Input line: Recorded cytotoxicity at 70.5 h for "CCOC(=O)[C@H]1[C@@H](O)C(=O)N(C)C12CCN(C(=O)OC)CC2" , please?
Output line: 7.43

More entries:
Input line: # cytotoxicity at 70.5 h lookup, item "O=C(O)c1ccc2c(c1)C1(CCCCC1)CN2C(=O)c1ccnnc1"
Output line: -4.43

* * *

assay: Human HepG2 cell viability assay in 384 well format; type: toxicity, cell-based; design: dose 125 nL, time 70.5 hour; concentration not given beside the values; details: HepG2 cells, read-out: Inhibition
PARAMETER MEASURED: cytotoxicity at 70.5 h (%)
Expressed in %, but write only the number.

Input line: # get_value(readout='cytotoxicity at 70.5 h', item= "N#Cc1ccc(NCCNc2ccc(C(F)(F)F)cn2)nc1" )
Output line: 101

Input line: I have this molecule here, CC(CN1CCOCC1)NC(=O)c1cccc2cn[nH]c12 (centres undefined) , and I need its recorded cytotoxicity at 70.5 h.
Output line: -3.84

Input line: // cytotoxicity at 70.5 h lookup, key: Cc1nc2ccc(CN3CC4(CCOC4)CCC3=O)cc2[nH]1 (centres undefined)
Output line: -1.05

***
Input line: So what's the measured cytotoxicity at 70.5 h for this one? "CC(C)N(C)Cc1cn2c(n1)CN(C(=O)Cc1ccsc1)CC2"
Output line: 0.0105

Input line: Please look up its cytotoxicity at 70.5 h: "Cn1nnc(NCc2ccc(OCc3ccc(Cl)cc3)cc2)n1"
Output line: -4.01

Input line: Record request: cytotoxicity at 70.5 h value, item Cc1cc(C)c(CNC(=O)NCC2COCCO2)c(=O)[nH]1 (centres undefined)
Output line: -4.78

Input line: Fill in the blank: the reported cytotoxicity at 70.5 h of CC(C)C(C(=O)N1CCC(Nc2cccnn2)CC1)n1cncn1 (centres undefined) is ____.
Output line: -11.9

Input line: Can you look up the measured cytotoxicity at 70.5 h of CSC(C)C(=O)NCCC(=O)N1CCN(c2ccccn2)CC1 (centres undefined) for me?
Output line: -3.28

Input line: Which cytotoxicity at 70.5 h is listed for "Cc1ncc2c(n1)CCN(Cc1ncc(C(C)(C)C)o1)C2" ?
Output line: -11.4

Input line: Return reported cytotoxicity at 70.5 h; argument: "CN1N=C(C(=O)N2CCN(c3ncccc3Cl)CC2)CCC1=O"
Output line: 12

Input line: Fill blank: measured cytotoxicity at 70.5 h of the molecule COc1ccc(C2CC(=O)Oc3cc(C)[nH]c(=O)c32)cc1O (centres undefined) is ____.
Output line: -19.6

* * *

// reported cytotoxicity at 70.5 h for each item listed
assay: Human HepG2 cell viability assay in 384 well format; type: toxicity, cell-based; set-up: dose 125 nL, time 70.5 hour; concentration not given beside the values; conditions: HepG2 cells, read-out: Inhibition
Just the number please, in %, no unit attached.

Worked cases, cytotoxicity at 70.5 h given:
Input line: For NC(=O)N1CCCC(C(=O)NCc2ccccc2OC(F)(F)F)C1 (centres undefined) , what is its reported cytotoxicity at 70.5 h?
Output line: -9.4

Input line: Item "COc1ccc(-c2cc3nc(CCNC(=O)C4CC4)nn3cn2)cc1" has what recorded cytotoxicity at 70.5 h?
Output line: 16.8

Input line: Endpoint output: cytotoxicity at 70.5 h of CCCN1CCC(N2CCOC(Cc3cccc(OC)c3)C2)CC1 (centres undefined) . Value?
Output line: 9.86

Input line: Item under review: "COc1ccccc1C(=O)Nc1c(F)c(C(=O)NC2CCCC2)nn1C" . Reported cytotoxicity at 70.5 h?
Output line: -7.93

Input line: I would be grateful if you could share the reported cytotoxicity at 70.5 h for "CCN(CC)Cc1cc(C(=O)N2CC[C@@]3(O)CCCC[C@H]3C2)c(C)o1" .
Output line: -9.79

---
Input line: Endpoint output: cytotoxicity at 70.5 h of "O=C(CN1CC(n2cccn2)C1)NCCCN1CCCC1=O" . Value?
Output line: 22.2

Input line: Item under review: "Cn1cc(C(=O)NCCC(=O)N2CCCCC2)c(-c2cccnc2)n1" . Reported cytotoxicity at 70.5 h?
Output line: 6.62

Input line: // returns reported cytotoxicity at 70.5 h for input "Cn1nc(C2CC2)cc1C(=O)N1CCC(c2nnsc2S(C)(=O)=O)CC1"
Output line: -4.78

Input line: Consider the compound "Cc1cc2ccncc2n1CC1(O)CCN(C(=O)c2ccncc2)CC1" and give its measured cytotoxicity at 70.5 h.
Output line: -1.76

Input line: Entry under review: "CCc1nnc(CNC(=O)CCCN2CCCCC2)s1" . Reported cytotoxicity at 70.5 h?
Output line: -0.919

Input line: Look up cytotoxicity at 70.5 h: "Cc1noc(NCc2ccc(F)cc2F)n1"
Output line: 21.8

Input line: Fill in: cytotoxicity at 70.5 h of "O=S(=O)(c1cccnc1)N1C[C@@H]2COC[C@]2(COCC2CC2)C1" is ___
Output line: -3.67

* * *

experiment: Human HepG2 cell viability assay in 384 well format; type: toxicity, cell-based; design: dose 125 nL, time 70.5 hour; concentration not given beside the values; conditions: HepG2 cells, read-out: Inhibition
Entries and their measured cytotoxicity at 70.5 h follow.
Form field: result (number plus unit)

Some solved entries appear below for comparison.
Input line: Which cytotoxicity at 70.5 h value is on record for "O=C(Cc1ccccn1)N1CCN(C(=O)CC2CCCCC2)CC1" ?
Output line: -2.98%

Input line: # get_value(readout='cytotoxicity at 70.5 h', item= Cc1nc(CN(C)C2CCN(Cc3sc(C)nc3C)C2)no1 (stereo not given) )
Output line: -7.02%

Input line: Given the compound "Cc1ccc(NCc2cn3c(n2)CN(Cc2ccc(C)o2)CC3)nn1" , what is its reported cytotoxicity at 70.5 h?
Output line: -4.46%

Input line: Could you share which cytotoxicity at 70.5 h value was measured for COCC1CN(C(=O)c2ccccn2)Cc2nccn2C1 (stereo not given) ?
Output line: -11.1%

Input line: For the compound "Cc1ccc(O)c(-c2cc(NCCO)nc3[nH]ccc23)c1" , what cytotoxicity at 70.5 h is on record?
Output line: -4.62%

Input line: Can you share its cytotoxicity at 70.5 h? I mean this compound: "Cc1cc(NCc2ccccc2CN2CCCCC2)n2ncnc2n1"
Output line: -10.1%

Input line: Quick check: cytotoxicity at 70.5 h of COCC1CN(Cc2sccc2C)Cc2nnn(CC3CC3)c21 (stereo not given) ?
Output line: -4.06%

Input line: Report cytotoxicity at 70.5 h for "COCCOc1ncccc1-c1noc([C@@H]2CCCN2C2CCC2)n1" please.
Output line: -10.3%

Input line: Give its cytotoxicity at 70.5 h value. Item: "Cc1nc(C)n(CCCn2ccnc2-c2cc3n(n2)CCCNC3)n1"
Output line: -11%

Input line: # get_value(readout='cytotoxicity at 70.5 h', item= "Cc1ccc(NC2CCN(C(=O)COCC3CC3)CC2)nn1" )
Output line: -2.64%

Others:
Input line: Can you share its cytotoxicity at 70.5 h? I mean this compound: "NS(=O)(=O)CCNC(=O)c1nnn(-c2ccc(F)cc2)c1C1CC1"
Output line: -2.85%

* * *

test: Human HepG2 cell viability assay in 384 well format; assay type: toxicity, cell-based; set-up: dose 125 nL, time 70.5 hour; concentration not given beside the values; conditions: HepG2 cells, read-out: Inhibition
Entries and their measured cytotoxicity at 70.5 h follow.
Please respond with the number in % and leave the unit unwritten.

Examples with their reported cytotoxicity at 70.5 h follow.
Input line: Fill in the blank: the reported cytotoxicity at 70.5 h of "Nc1ncccc1C(=O)NCc1cccc(Br)c1" is ____.
Output line: 13.7

Input line: Which measured cytotoxicity at 70.5 h value corresponds to O=C(Cn1nc2c(cc1=O)CCCC2)NC(Cc1ccccc1)C(=O)O (centres undefined) ?
Output line: -10.7

Input line: Consider the compound "Cc1noc(CNC(=O)C(C)(C)NC(=O)OC(C)(C)C)n1" and give its measured cytotoxicity at 70.5 h.
Output line: 18.7

Input line: Name the reported cytotoxicity at 70.5 h value associated with the compound Cc1nnc2n1CCN(CC(=O)NC(C)c1cc3ccccc3o1)C2 (centres undefined)
Output line: 2.01

Input line: Recorded cytotoxicity at 70.5 h for "CCn1cnnc1CNC(=O)N(C)Cc1ccccc1OC" , please?
Output line: -4

Input line: Which value of cytotoxicity at 70.5 h has been reported for "Cc1ccc(C(=O)N(C)Cc2csc(Br)c2)c(=O)[nH]1" in the records?
Output line: 1.57

***
Input line: Which cytotoxicity at 70.5 h reading was recorded for the compound "C=C(C)CN1CCC(NC(=O)Nc2ccc(F)c(C(N)=O)c2)CC1" ?
Output line: -6.42

Input line: Any idea what its cytotoxicity at 70.5 h is? The compound is "COc1ccccc1C1(C(=O)NCCN2CCCCC2)CCOCC1"
Output line: 15.9

Input line: // lookup cytotoxicity at 70.5 h for "N#Cc1ncn(CCS(=O)(=O)c2ccccc2)n1"
Output line: -16.8

Input line: GET /values?readout=cytotoxicity at 70.5 h&item= "CCN(CC)S(=O)(=O)CC(=O)N1CCc2ccc(C)cc21"
Output line: -7.29

Input line: Consider the compound "CCc1nn(C)c(Cl)c1CN(CCOC)Cc1cnn(C)c1" and give its measured cytotoxicity at 70.5 h.
Output line: 0.921

Input line: Which cytotoxicity at 70.5 h reading was recorded for the compound "COc1cccc(-c2cc(-c3nc(CN4CCN(C)CC4)no3)[nH]n2)c1" ?
Output line: 6.39
